This collection of values is drawn from BindingDB's records for doi:10.1016/S0960-894X(01)00722-3.

Target chain: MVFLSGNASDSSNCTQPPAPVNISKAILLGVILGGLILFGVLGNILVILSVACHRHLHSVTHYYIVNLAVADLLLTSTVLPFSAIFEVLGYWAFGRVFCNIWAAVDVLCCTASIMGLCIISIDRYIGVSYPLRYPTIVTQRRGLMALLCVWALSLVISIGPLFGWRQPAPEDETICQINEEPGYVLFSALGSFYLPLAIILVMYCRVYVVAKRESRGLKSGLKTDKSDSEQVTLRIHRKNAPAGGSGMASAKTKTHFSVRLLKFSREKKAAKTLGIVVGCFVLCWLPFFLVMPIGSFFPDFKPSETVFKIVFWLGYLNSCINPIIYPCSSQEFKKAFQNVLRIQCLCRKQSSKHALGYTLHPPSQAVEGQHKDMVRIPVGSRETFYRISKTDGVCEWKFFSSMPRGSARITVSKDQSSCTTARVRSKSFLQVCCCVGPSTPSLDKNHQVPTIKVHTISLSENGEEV
Can you tell me IC50 for the items I'm about to list?
Give bare numbers, in nM.

CN(C)CC1CC2c3cc(F)ccc3Cc3ccc(F)cc3N2O1 (configuration not stated); 162

Continue with the compound presented below.
Incoming: Please look up its IC50: CN(C)CC1CC2c3ccccc3Cc3ccc(Cl)cc3N2O1 (configuration not stated)
Outgoing: 14

* * *

Let's go through some pIC50 measurements on UniProt P35367 together.
Sequence (P35367 whole entry): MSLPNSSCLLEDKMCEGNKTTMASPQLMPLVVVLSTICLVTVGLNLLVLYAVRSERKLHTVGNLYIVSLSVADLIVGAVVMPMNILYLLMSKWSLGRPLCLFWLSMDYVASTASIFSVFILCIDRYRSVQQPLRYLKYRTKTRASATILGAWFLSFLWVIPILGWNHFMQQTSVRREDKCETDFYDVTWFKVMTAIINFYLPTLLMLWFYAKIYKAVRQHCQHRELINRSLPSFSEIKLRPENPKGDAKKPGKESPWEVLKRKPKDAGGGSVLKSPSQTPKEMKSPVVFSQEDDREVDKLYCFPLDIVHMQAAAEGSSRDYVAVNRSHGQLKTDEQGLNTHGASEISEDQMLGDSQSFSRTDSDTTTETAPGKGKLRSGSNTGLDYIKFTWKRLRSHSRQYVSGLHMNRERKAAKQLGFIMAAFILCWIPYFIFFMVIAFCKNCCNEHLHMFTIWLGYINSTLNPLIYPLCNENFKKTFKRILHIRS
Answers are plain numbers, as −log10 of the molar value.

Example molecules with recorded pIC50:
CN(C)CC1CC2c3cccc(C(F)(F)F)c3Cc3ccccc3N2O1 (centres undefined); 7.43
Cc1cccc2c1Cc1ccccc1C1CC(CN(C)C)ON21 (centres undefined); 8.22
CN(C)CC1CC2c3ccccc3Cc3ccc(Cl)cc3N2O1 (centres undefined); 8.64
COc1ccc2c(c1)C1CC(CN(C)C)ON1c1ccccc1C2 (centres undefined); 7.85
CN(C)CC1CC2c3c(cccc3C(F)(F)F)Cc3ccccc3N2O1 (centres undefined); 7.32
CN(C)CC1CC2c3cc(F)ccc3Cc3ccc(F)cc3N2O1 (centres undefined); 7.77

Would you mind listing pIC50 for each of the following molecules?
1. CN(C)CC1CC2c3ccccc3Cc3cc(F)ccc3N2O1 (centres undefined)
2. Cc1cccc2c1C1CC(CN(C)C)ON1c1ccccc1C2 (centres undefined)
3. CN(C)CC1CC2c3ccccc3Cc3ccc(F)cc3N2O1 (centres undefined)

Outgoing:
1. 8.89
2. 7.92
3. 8.59

Would you mind listing pIC50 for each of the following molecules?
1. CN(C)CC1CC2c3ccccc3Cc3ccc(-c4ccccc4)cc3N2O1 (centres undefined)
2. CN(C)CC1CC2c3cc(F)ccc3Cc3ccccc3N2O1 (centres undefined)

Outgoing:
1: 8.10; 2: 8.42

Would you mind listing pIC50 for each of the following molecules?
1. Cc1ccc2c(c1)Cc1ccccc1N1OC(CN(C)C)CC21 (centres undefined)
2. CN(C)CC1CC2c3ccccc3Cc3cccc(Cl)c3N2O1 (centres undefined)

Outgoing:
7.80
7.82

* * *

Target protein (sequence): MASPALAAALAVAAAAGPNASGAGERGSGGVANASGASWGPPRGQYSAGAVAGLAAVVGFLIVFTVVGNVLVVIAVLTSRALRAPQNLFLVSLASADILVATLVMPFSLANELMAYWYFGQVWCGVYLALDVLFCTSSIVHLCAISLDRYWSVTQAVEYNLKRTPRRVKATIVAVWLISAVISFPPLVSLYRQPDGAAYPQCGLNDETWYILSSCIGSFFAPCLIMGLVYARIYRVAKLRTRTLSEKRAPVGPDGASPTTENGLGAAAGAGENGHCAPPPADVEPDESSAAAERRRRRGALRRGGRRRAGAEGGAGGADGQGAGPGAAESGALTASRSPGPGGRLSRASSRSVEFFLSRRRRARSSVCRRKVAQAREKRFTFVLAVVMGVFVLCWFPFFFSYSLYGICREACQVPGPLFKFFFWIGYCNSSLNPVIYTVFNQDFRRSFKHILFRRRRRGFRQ
result_type: IC50 (nM)
Answers are plain numbers, in nM.

Incoming: Please look up its IC50: CN(C)CC1CC2c3ccccc3Cc3ccc(F)cc3N2O1 (stereo unspecified)
Outgoing: 1170

* * *

- tgt: UniProt:P28223
- test_description: ChEBML_2507
Bucketed by reported IC50, buckets being low bracket = under 0.02 µM, middle bracket = from 0.02 µM up to 0.07 µM, high bracket = 0.07 µM and over

CN(C)CC1CC2c3cccc(C(F)(F)F)c3Cc3ccccc3N2O1 (centres undefined); high bracket
CN(C)CC1CC2c3ccccc3Cc3cccc(Cl)c3N2O1 (centres undefined); middle bracket
CN(C)CC1CC2c3ccccc3Cc3ccc(Cl)cc3N2O1 (centres undefined); low bracket

Incoming: Sort into band: Cc1ccc2c(c1)N1OC(CN(C)C)CC1c1ccccc1C2 (centres undefined)
Outgoing: low bracket

Incoming: Sort into band: Cc1cccc2c1C1CC(CN(C)C)ON1c1ccccc1C2 (centres undefined)
Outgoing: middle bracket

Incoming: Sort into band: CN(C)CC1CC2c3ccccc3Cc3cc(F)ccc3N2O1 (centres undefined)
Outgoing: low bracket

Incoming: Sort into band: CN(C)CC1CC2c3cc(F)ccc3Cc3ccccc3N2O1 (centres undefined)
Outgoing: middle bracket

Incoming: Sort into band: COc1ccc2c(c1)C1CC(CN(C)C)ON1c1ccccc1C2 (centres undefined)
Outgoing: high bracket

Incoming: Sort into band: CN(C)CC1CC2c3ccccc3Cc3c(F)cccc3N2O1 (centres undefined)
Outgoing: middle bracket

Incoming: Sort into band: Cc1cccc2c1Cc1ccccc1C1CC(CN(C)C)ON21 (centres undefined)
Outgoing: high bracket

* * *

- tgt: D(3) dopamine receptor (Homo sapiens)
- Sequence (P35462 as listed by the source): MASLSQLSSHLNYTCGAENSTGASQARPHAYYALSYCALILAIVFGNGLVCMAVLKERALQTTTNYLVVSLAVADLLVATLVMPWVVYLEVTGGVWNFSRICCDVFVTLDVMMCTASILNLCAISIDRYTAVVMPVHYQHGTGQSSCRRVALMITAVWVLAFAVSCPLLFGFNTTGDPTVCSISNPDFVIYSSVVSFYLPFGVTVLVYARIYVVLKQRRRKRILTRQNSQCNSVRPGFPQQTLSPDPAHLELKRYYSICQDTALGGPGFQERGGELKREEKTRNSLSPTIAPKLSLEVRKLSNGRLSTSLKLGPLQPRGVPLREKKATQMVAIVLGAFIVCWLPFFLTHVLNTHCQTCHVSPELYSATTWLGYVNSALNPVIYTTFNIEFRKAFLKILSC
Can you tell me IC50 for the items I'm about to list?

CN(C)CC1CC2c3cc(F)ccc3Cc3ccc(F)cc3N2O1 (configuration not stated); < 1000 nM

Continue with the molecule presented below.
Incoming: Could you share what IC50 was measured for CN(C)CC1CC2c3ccccc3Cc3ccc(Cl)cc3N2O1 (configuration not stated) , tested on D(3) dopamine receptor (Homo sapiens)?
Outgoing: 0.55 nM

* * *

Can you tell me IC50 for the items I'm about to list?
- tgt: 5-hydroxytryptamine receptor 1D (Homo sapiens, UniProt P28221)
- Sequence (P28221 whole entry): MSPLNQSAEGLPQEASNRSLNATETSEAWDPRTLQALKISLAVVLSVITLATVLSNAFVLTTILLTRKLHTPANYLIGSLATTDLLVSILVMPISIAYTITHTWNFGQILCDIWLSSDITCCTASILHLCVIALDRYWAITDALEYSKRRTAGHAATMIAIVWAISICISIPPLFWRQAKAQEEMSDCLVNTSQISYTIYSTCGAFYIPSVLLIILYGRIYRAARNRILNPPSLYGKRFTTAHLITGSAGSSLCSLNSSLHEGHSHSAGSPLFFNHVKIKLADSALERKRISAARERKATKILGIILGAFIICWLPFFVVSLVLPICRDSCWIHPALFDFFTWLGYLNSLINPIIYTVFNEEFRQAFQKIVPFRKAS

Would you mind listing IC50 for each of the following compounds?
1. Cc1ccc2c(c1)N1OC(CN(C)C)CC1c1ccccc1C2 (stereo not drawn)
2. CN(C)CC1CC2c3cc(F)ccc3Cc3ccc(F)cc3N2O1 (stereo not drawn)
3. CN(C)CC1CC2c3ccccc3Cc3ccc(F)cc3N2O1 (stereo not drawn)

Outgoing:
1. < 1000 nM
2. < 1000 nM
3. 302 nM

* * *

- tgt: D(2) dopamine receptor (Rattus norvegicus)
- Sequence (P61169 whole entry): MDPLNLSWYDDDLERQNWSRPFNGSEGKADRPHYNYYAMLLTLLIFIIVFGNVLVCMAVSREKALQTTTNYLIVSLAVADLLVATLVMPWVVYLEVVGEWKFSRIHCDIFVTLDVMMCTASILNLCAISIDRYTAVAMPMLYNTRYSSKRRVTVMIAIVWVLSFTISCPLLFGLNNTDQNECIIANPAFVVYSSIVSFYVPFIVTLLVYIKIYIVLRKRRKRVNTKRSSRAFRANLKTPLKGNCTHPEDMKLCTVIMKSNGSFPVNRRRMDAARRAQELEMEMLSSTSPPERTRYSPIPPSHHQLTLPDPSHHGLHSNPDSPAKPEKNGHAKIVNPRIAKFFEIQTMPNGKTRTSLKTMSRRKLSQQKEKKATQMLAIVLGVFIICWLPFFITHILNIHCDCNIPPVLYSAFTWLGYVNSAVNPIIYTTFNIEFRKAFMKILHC
result_type: IC50

Example compounds with recorded IC50:
Cc1ccc2c(c1)N1OC(CN(C)C)CC1c1ccccc1C2 (stereo not drawn); < 1000 nM
CN(C)CC1CC2c3ccccc3Cc3ccc(Cl)cc3N2O1 (stereo not drawn); 8.9 nM

Continue with the compound presented below.
Incoming: Please look up its IC50: CN(C)CC1CC2c3ccccc3Cc3ccc(F)cc3N2O1 (stereo not drawn)
Outgoing: < 1000 nM

* * *

- tgt: 5-hydroxytryptamine receptor 2C (Homo sapiens)
- Sequence (P28335 whole entry): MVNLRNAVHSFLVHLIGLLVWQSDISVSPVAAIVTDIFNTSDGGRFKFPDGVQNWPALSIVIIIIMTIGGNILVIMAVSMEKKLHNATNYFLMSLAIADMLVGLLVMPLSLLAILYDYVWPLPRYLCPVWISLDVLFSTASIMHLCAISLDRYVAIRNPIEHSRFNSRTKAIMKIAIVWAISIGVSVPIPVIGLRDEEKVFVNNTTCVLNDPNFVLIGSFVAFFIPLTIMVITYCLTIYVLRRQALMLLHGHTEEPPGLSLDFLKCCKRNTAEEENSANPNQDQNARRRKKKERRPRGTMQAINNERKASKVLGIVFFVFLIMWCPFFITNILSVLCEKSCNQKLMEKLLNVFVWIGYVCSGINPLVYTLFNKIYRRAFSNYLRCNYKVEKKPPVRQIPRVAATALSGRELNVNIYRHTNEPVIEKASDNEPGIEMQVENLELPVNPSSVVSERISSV
result_type: IC50 (nM)
Give bare numbers, in nM.

Cc1cccc2c1C1CC(CN(C)C)ON1c1ccccc1C2 (stereo unspecified); 30
CN(C)CC1CC2c3cc(F)ccc3Cc3ccc(F)cc3N2O1 (stereo unspecified); 6.2
CN(C)CC1CC2c3ccccc3Cc3cc(F)ccc3N2O1 (stereo unspecified); 4.7
CN(C)CC1CC2c3cccc(F)c3Cc3ccccc3N2O1 (stereo unspecified); 12

Incoming: Could you share what IC50 was measured for CN(C)CC1CC2c3ccccc3Cc3cccc(Cl)c3N2O1 (stereo unspecified) , tested on 5-hydroxytryptamine receptor 2C (Homo sapiens)?
Outgoing: 10

* * *

Let's go through some IC50 measurements on Alpha-2A adrenergic receptor (Homo sapiens, UniProt P08913) together.
Sequence (P08913 whole entry): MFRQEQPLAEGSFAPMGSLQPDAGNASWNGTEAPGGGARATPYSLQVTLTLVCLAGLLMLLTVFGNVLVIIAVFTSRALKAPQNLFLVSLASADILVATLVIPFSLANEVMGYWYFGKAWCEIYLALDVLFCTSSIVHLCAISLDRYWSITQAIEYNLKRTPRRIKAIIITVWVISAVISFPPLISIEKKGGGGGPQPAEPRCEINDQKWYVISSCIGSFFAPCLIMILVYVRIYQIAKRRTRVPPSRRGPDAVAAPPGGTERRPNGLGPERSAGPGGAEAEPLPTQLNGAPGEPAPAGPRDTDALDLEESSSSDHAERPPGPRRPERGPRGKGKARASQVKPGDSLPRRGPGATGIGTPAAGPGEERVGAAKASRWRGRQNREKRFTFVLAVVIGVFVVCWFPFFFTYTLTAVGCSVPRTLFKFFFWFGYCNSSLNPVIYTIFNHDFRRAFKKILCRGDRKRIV

Cc1ccc2c(c1)N1OC(CN(C)C)CC1c1ccccc1C2 (configuration not stated); < 1000 nM

Continue with the compound presented below.
Incoming: Please look up its IC50: CN(C)CC1CC2c3cc(F)ccc3Cc3ccc(F)cc3N2O1 (configuration not stated)
Outgoing: < 1000 nM

* * *

Can you tell me IC50 for the items I'm about to list?
- tgt: 5-hydroxytryptamine receptor 2A (Homo sapiens, UniProt P28223)
- Sequence (P28223 whole entry): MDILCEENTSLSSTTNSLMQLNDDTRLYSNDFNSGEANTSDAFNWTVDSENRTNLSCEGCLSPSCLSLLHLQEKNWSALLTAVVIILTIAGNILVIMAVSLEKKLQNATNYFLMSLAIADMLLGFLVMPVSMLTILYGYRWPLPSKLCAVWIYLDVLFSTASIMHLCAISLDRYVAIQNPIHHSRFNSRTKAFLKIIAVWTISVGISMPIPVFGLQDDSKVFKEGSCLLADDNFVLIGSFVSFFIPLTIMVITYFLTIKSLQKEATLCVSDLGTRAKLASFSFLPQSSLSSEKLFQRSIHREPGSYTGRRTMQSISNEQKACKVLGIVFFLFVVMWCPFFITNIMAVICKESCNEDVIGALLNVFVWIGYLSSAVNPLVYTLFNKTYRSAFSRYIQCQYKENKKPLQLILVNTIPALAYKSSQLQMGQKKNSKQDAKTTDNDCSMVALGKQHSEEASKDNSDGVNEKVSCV
- test_description: ChEBML_2507

Example compounds with recorded IC50:
CN(C)CC1CC2c3cc(C(F)(F)F)ccc3Cc3ccccc3N2O1 (centres undefined); < 1000 nM
CN(C)CC1CC2c3c(cccc3C(F)(F)F)Cc3ccccc3N2O1 (centres undefined); 68 nM
CN(C)CC1CC2c3c(F)cccc3Cc3ccccc3N2O1 (centres undefined); < 1000 nM

Incoming: Please look up its IC50: CN(C)CC1CC2c3cccc(Cl)c3Cc3ccccc3N2O1 (centres undefined)
Outgoing: < 1000 nM
